A collection of molecules and their measured IC50
- test-target: CYP3A4 (Homo sapiens, UniProt P08684)
- Sequence (P08684 whole entry): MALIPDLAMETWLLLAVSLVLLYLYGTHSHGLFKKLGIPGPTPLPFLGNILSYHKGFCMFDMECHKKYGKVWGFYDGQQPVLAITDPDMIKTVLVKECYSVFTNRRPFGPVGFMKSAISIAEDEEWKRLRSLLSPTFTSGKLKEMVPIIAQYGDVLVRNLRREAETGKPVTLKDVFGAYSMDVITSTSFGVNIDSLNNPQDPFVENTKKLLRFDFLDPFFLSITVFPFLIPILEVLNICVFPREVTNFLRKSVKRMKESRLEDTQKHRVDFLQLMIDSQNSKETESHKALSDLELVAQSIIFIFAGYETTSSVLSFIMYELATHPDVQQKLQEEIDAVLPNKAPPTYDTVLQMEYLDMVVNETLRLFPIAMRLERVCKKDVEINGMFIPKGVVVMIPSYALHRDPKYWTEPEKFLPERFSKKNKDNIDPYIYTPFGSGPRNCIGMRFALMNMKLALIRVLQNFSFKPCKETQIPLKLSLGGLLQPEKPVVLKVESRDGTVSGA
- assay-procedure: Cytochrome inhibition, fluorometric assay, CYP3A4
- condition-label: human recombinant CYP3A4, substrate BFC; read-out: cytochrome inhibition (IC50, concentrations for 50% inhibition) CYP3A4
Where a name gives a salt, the structure may show the parent alone.

Which value of IC50 has been reported for COc1cc(CCCOCCCN2CCCCC2)ccc1O [Example 6, oxalate] in the records? > 10 µM

Entry under review: Fc1ccc(CCCOCCCN2CCCC2)cc1.O=C(O)C(=O)O [Example 7, oxalate] . Reported IC50? > 100 µM

What does the record list as IC50 for COc1ccc(CCCOCCCN2CCCCC2)cc1OC [Example 3, oxalate] ? > 10 µM

Look up IC50: COc1cc(CCCOCCCN2CCCC2)ccc1F [Example 9, oxalate] > 100 µM

The record that follows has no IC50 shown yet.
Look up IC50 for this molecule: C(=C\c1ccc2c(c1)OCCO2)/COCCCN1CCCCC1.O=C(O)C(=O)O > 10 µM

###

Quick reference for IC50 among some compounds
- test-target: CYP3A4 (Homo sapiens, UniProt P08684)
- assay-procedure: Cytochrome inhibition, fluorometric assay, CYP3A4
- condition-label: human recombinant CYP3A4, substrate BFC; read-out: cytochrome inhibition (IC50, concentrations for 50% inhibition) CYP3A4
Where a name gives a salt, the structure may show the parent alone.

Sample records with IC50:
Field request: IC50 | item: COc1ccc(/C=C/COCCCN2CCCCC2)cc1OC.O=C(O)C(=O)O [Example 2, oxalate] > 10 µM

// query IC50 value for entry C(=C\c1ccc2c(c1)OCO2)/COCCCN1CCCC1 [Example 14, oxalate] 10.6 µM

Please report the recorded IC50 for c1ccc2cc(CCCOCCCN3CCCCC3)ccc2c1 [Example 5] . > 10 µM

---
Could you share which IC50 value was measured for Cc1cc(CCCOCCCN2CCCC2)ccc1F [Example 10, oxalate] ? > 10 µM

// IC50 lookup, key: Cc1ccc(CCCOCCCN2CCCCC2)cc1 [Example 4, oxalate] > 10 µM

Data provenance is patent US8017646B2.
